Measured IC50 by item
- Target Entity: Recombinant human renin (Homo sapiens)
- Construct: isolate the active form (residues 67-406); made in house; host or cells: FreeStyle 293-F cells, transient expression of pcDNA3.1(+)/hREN
- Sequence (P00797 67-406): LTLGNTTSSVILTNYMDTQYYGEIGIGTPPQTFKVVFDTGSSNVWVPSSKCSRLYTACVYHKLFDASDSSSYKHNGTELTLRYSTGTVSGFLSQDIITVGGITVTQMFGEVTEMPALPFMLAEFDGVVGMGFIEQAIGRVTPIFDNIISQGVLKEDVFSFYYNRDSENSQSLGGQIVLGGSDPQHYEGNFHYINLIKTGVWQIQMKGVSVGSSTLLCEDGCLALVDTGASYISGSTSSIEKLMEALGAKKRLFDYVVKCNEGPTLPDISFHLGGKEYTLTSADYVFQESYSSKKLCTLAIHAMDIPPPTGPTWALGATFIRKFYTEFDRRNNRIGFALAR
- Procedure Details: In vitro enzymatic activity assay of renin inhibitors (fluorescence, QXL520/HiLyteFluo488 peptide substrate)
- Type: biochemical
- Experimental Parameters: recombinant human renin 3 nM, 1 μM substrate, pre-incubated 10 minutes at 37° C., incubation one hour, pH 7.4, 5% DMSO; read-out: IC50 of Exemplified Compounds Against Renin

Sample answers from the record:
INSERT INTO assay_data (molecule, endpoint_value) VALUES
  ('O=C(c1[nH]c(=O)n(-c2ccccc2)c1-c1ccccc1)N1CCNCC1CO (stereo not shown)', '> 1000 nM'),
  ('COc1ccccc1-n1c(-c2ccccc2)c(C(=O)N2CCNCC2)n(CCCNC(=O)c2ccccc2)c1=O', '> 1000 nM'),
  ('Cc1ccccc1-n1c(-c2ccccc2)c(C(=O)N2CCNCC2)n(CCCNC(=O)c2ccccc2)c1=O', '> 1000 nM');

Prompt: Form field - read-out: IC50; system: Recombinant human renin (Homo sapiens); submitted item: `Cc1ccccc1-n1c(-c2ccccc2)c(C(=O)N2CCNCC2)n(CCNC(=O)c2cccc(Cl)c2)c1=O`
Response: 500 to 1000 nM

###

- Target Entity: Recombinant human renin (Homo sapiens, UniProt P00797)
- Construct: isolate the active form (residues 67-406); made in house; host or cells: FreeStyle 293-F cells, transient expression of pcDNA3.1(+)/hREN
- Sequence (P00797 67-406): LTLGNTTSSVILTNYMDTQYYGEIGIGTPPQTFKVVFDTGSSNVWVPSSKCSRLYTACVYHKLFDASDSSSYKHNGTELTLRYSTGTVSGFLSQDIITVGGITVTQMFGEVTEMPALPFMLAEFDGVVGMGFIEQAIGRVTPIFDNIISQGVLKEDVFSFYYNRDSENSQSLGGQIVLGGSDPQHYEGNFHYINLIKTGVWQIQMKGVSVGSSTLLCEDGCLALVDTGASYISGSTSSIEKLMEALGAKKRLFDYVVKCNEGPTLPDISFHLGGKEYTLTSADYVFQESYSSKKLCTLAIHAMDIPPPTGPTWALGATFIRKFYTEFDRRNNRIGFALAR
- Procedure Details: In vitro enzymatic activity assay of renin inhibitors (fluorescence, QXL520/HiLyteFluo488 peptide substrate)
- Assay type: biochemical
- Experimental Parameters: recombinant human renin 3 nM, 1 μM substrate, pre-incubated 10 minutes at 37° C., incubation one hour, pH 7.4, 5% DMSO; read-out: IC50 of Exemplified Compounds Against Renin
pIC50: −log10 of the molar value.
Below, each entry is listed with its recorded pIC50.

Consider the following illustrative entries.
INSERT INTO assay_data (chemical_string, endpoint_value) VALUES
  ('O=C(c1c(-c2ccccc2)n(-c2ccccn2)c(=O)n1Cc1ccccc1)N1CCNCC1', '< 6.00'),
  ('O=C(c1c(-c2ccccc2)n(-c2ccccc2)c(=O)n1Cc1ccc(F)c(F)c1)N1CCNCC1', '6.30 to 7.00'),
  ('O=C(c1c(-c2ccccc2)n(-c2cccc(N3CCOCC3)c2)c(=O)n1CCCNS(=O)(=O)c1ccccc1F)N1CCNCC1', '< 6.00');

Now consider the entry below.
Prompt: What value of pIC50 has been reported for the following molecule? `Cn1c(C(=O)N2CCNC[C@H]2Cc2ccccc2)c(-c2ccccc2)n(-c2cccc(N3CCOCC3)c2)c1=O`
Response: 6.30 to 7.00
